recorded.endpoint: melting point

Illustrative cases are given below, each with its answer.
molecule	recorded.endpoint	result
CCc1nc(C(=O)OC)c(Cl)c(N)c1F	melting point	109 to 110 °C
CC(C)(C)[Si](C)(C)N1C(=O)CC1SC(c1ccccc1)(c1ccccc1)c1ccccc1 (stereo not drawn)	melting point	113 to 114 °C

Query molecule follows.
[ask] Please indicate melting point recorded for `CCCc1ccc(C(=O)OCC)n1Cc1ccc(-c2ccccc2C(=O)O)cc1`
[reply] 111 to 115 °C

* * *

Could you please report measured melting point for the items listed next?

Illustrative cases are given below, each with its answer.
compound	melting point
C=COCCOc1ccc(C=CC(=O)C=Cc2ccc(OCCOC=C)cc2)cc1	124 to 125 °C
Nc1ccc(C(=S)SCCO)cc1	87.5 to 89.5 °C
O=C1c2ccccc2C(=O)N1Cc1cccc(CN2C(=O)c3ccccc3C2=O)n1	> 250 °C
COc1cc2c(cc1C(=O)c1cc(C(C)(C)C)c(O)c(C(C)(C)C)c1)CCC2	154 to 156 °C
O=C(O)c1cn(CCc2ccc(C(F)(F)F)cc2)c2cc(C3CC3)nn2c1=O	225 to 230 °C

Please give melting point for each item listed below.
1. CCCC(CCC)n1nnc2c(Cl)nc(C)cc21
2. Cc1ccc(Oc2cccc(C#CC(C)N(O)C(N)=O)c2)cc1F (stereo not given)
3. CCCCN1C(=O)NC(C(C)O)C1=O (stereo not given)

[reply]
1: 90 to 91 °C; 2: 128 to 130 °C; 3: 145 °C

Please give melting point for each item listed below.
1. Cc1sc(C(N)=O)c2c1-c1nn(C)cc1CC2
2. CCCNc1nnc(Cc2c(Cl)cncc2Cl)c2ccc(OC)cc12
3. CC(C)(C)C(=O)Nc1c(F)cc(F)cc1Oc1ccc(C(C)(C)C(N)=O)cc1

[reply]
276 to 277 °C
222 to 223 °C
169 to 170 °C

Please give melting point for each item listed below.
1. CC(=O)Nc1ccc2c(c1)OC(C)O2 (stereo not given)
2. Nc1cncnc1NCCN1CCC(Nc2nc3ccccc3n2Cc2ccc(F)cc2)CC1
3. CCN(CC)CCN1c2cc(Cl)ccc2S[C@H]2[C@@H](OC(=O)c3ccccc3)[C@H](OC(=O)c3ccccc3)[C@@H](COC(=O)c3ccccc3)O[C@H]21
4. CC(=O)OCC1CC2c3cccc4c3C(CC2N(C)C1)CN4C(C)=O (stereo not given)
5. CCCCN1CC(C(=O)OC)N(S(=O)(=O)c2ccc(-c3ccc(Br)cc3)cc2)CC1=O (stereo not given)
6. O=C(Oc1ccc([N+](=O)[O-])cc1)C(=O)N1CCOC1=O
7. Cn1c2cc(C#N)ccc2c2nc3ccccc3nc21
8. CC(=O)Nc1ccc(-c2cc(C(=O)c3ccc(S(C)(=O)=O)cc3)sc2N2CCOCC2)cc1

[reply]
["155 to 156 °C", "208 °C", "124 to 126 °C", "172 to 177 °C", "113 to 115 °C", "159 °C", "284 to 287 °C", "177 °C"]

* * *

Could you please report measured melting point for the items listed next?

compound	recorded.endpoint	result
O=C1Cc2cc(Cl)ccc2Oc2ccccc21	melting point	60 to 61 °C
O=C1N(CC2CCCCC2)c2ccccc2C12COc1cc3c(cc12)OCO3 (configuration not stated)	melting point	153 to 154 °C
Nc1nnc(N2CCOCC2)s1	melting point	186 to 188 °C
CS(=O)(=O)ON1C(=O)CCC1=O	melting point	148 to 150 °C
COc1ccc(S(N)(=O)=O)cc1C(C)=O	melting point	203 to 206 °C

Please give melting point for each item listed below.
1. CS(=O)(=O)c1ccc(C(=O)O)c(F)c1F
2. CN(C)CCNS(=O)(=O)c1cccc(NC(=O)c2cnn3c(C(F)(F)F)cc(-c4ccc(C(F)(F)F)cc4)nc23)c1
3. Fc1ccc2c(C3=CCN(CCC4OCCc5cc(Br)ccc54)CC3)c[nH]c2c1 (configuration not stated)

[reply]
1: 214 to 215 °C; 2: 224 °C; 3: 184 to 186 °C

Please give melting point for each item listed below.
1. Cc1cc(C)c2c(-c3coc4cc(C)cc(C)c34)coc2c1
2. O=C(/C=C/c1ccc(N2CCCCC2)cc1)CC(=O)/C=C/c1ccc2cc[nH]c2c1

[reply]
98 to 100 °C
91 to 96 °C

Please give melting point for each item listed below.
1. O=C(c1ccncc1)c1cc(-c2ccncc2)c(N2CCOCC2)s1
2. COc1cc2cc(C#N)c(Cl)nc2cc1OC
3. CN(C)C(=O)Sc1ccc(C(=O)c2cccc(C#N)c2)cc1

[reply]
124 °C
224 °C
150 °C

Origin of the recorded values: a melting point compilation (Tetko et al.; mined from patent text by program, amines drawn as free bases though some values may be those of a salt)
